- EXPERIMENT_SUMMARY: qHTS assay for small molecule disruptors of the mitochondrial membrane potential - 5 hr assay (AID 651755); also: nearly all actives have a fitted effect of over 40% in size
- TEST_PARAMETERS: JC-1-type ratio dye; series mostly up to 92.2 µM
Results filed as inconclusive are left out. Active and inactive are the calls of the source. Calls follow the shape of the full dose curve.
Please answer using one outcome listed in active, inactive

Ask | For this compound, state the assay outcome: NC(=O)N/N=C/c1ccc([N+](=O)[O-])o1
Reply | inactive

Ask | Same thing, different compound: [Cl][In]([Cl])[Cl]
Reply | inactive

Ask | // same read-out, input: CCCCCCCCCCCCOS(=O)(=O)O
Reply | inactive

Ask | Consider next the compound Cc1c(O)cccc1C(=O)N[C@@H](CSc1ccccc1)[C@H](O)CN1C[C@H]2CCCC[C@H]2C[C@H]1C(=O)NC(C)(C)C in the same way.
Reply | active

###

- EXPERIMENT_SUMMARY: Confirmation and Secondary Assay for Modulators of Hemoglobin Beta Chain Splicing at IVS2 654 locus (AID 910);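 also: HeLa cells stably carrying EGFP split by mutant beta-globin IVS2-654 intron; per-well total GFP intensity by laser scanning cytometry after 2-day treatment; % of control where 0% means no effect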
- TEST_PARAMETERS: HeLa EGFP-654 splicing reporter, GFP fluorescence, 48 h; series mostly up to 46.1 µM
Calls of active or inactive are those of the source. Calls come from the whole dose curve; as a rule, active = well fitted activation curve with a large enough effect; inconclusive = small, poorly fitted or top-dose-only effect; inactive = flat fitted curve, though single readings scatter.
READOUT: outcome

Known results for molecules:
O=C(O)c1ccccc1O    inactive
Cc1cc(N)c2ccccc2[n+]1CCCCCCCCCC[n+]1c(C)cc(N)c2ccccc21    inactive
CCCCN(CCCC)CCCOC(=O)c1ccc(N)cc1    inactive
CC(CN1c2ccccc2Sc2ccccc21)N(C)C (centres undefined)    inactive
OCC(O)CN1CCN(c2ccccc2)CC1 (centres undefined)    inactive
NS(=O)(=O)c1cc2c(cc1Cl)NC(CSCc1ccccc1)=NS2(=O)=O    inactive
Nc1ccc(S(=O)(=O)Nc2nccs2)cc1    inactive
CN(C)CCC=C1c2ccccc2CCc2ccccc21    inactive

// moving on: another record for outcome
Ask | Fill in: outcome of CN(C)CC[C@@H](c1ccc(Cl)cc1)c1ccccn1 is ___
Reply | inactive

###

- Tested on: CP315
- EXPERIMENT_SUMMARY: qHTS profiling for inhibitors of Plasmodium falciparum proliferation (AID 504749); also: nearly all actives have a fitted effect of over 60% in size
- TEST_PARAMETERS: P. falciparum in erythrocytes, SYBR Green DNA, 72 h; series mostly up to 28.7 µM
Records with an inconclusive call do not appear. The source made the active and inactive calls. Calls come from the whole dose curve; as a rule, active = well fitted inhibition curve with a large enough effect; inconclusive = small, poorly fitted or top-dose-only effect; inactive = flat fitted curve, though single readings scatter.
Select the correct class. Options are 1 (active), 0 (inactive) and nothing else.

Ask | Identify the outcome logged in this assay for the compound shown: c1ccc(CN(CC2=NCCN2)c2ccccc2)cc1
Reply | 0

Ask | Another compound to look at: CC(=O)c1ccc2c(c1)N(CCCN(C)C)c1ccccc1S2
Reply | 0

Ask | Quick one: C#CCN(C)Cc1ccccc1
Reply | 0

Ask | Now the compound COc1ccc(Cl)cc1C(=O)NCCc1ccc(S(=O)(=O)NC(=O)NC2CCCCC2)cc1
Reply | 0

Ask | Request: O=C(Oc1ccccc1C(=O)O)c1ccccc1O
Reply | 0

Ask | Check Nc1ncnc2c1ncn2[C@@H]1O[C@H](CO)[C@@H](O)[C@H]1O too.
Reply | 0

Ask | What do you get for CC[C@@]1(c2ccccc2)NC(=O)N(C)C1=O ?
Reply | 0

Ask | Can you handle Nc1ccc(S(=O)(=O)Nc2ccccc2)cc1 next?
Reply | 0

Ask | How about this compound: CCCn1cnc2c1c(=O)n(CCCCC(C)=O)c(=O)n2C
Reply | 0

Ask | Further, for C[C@H](N)[C@H](O)c1cccc(O)c1 ?
Reply | 0

Ask | Queued: CC(C)(C)NCC(O)COc1ccc(NC(=O)NC2CCCCC2)cc1 (stereo not drawn)
Reply | 0

Ask | Do the same for CC(C)(C)C(=O)NCCCC(=O)O please
Reply | 0

Ask | And for O=c1cc[nH]c(=S)[nH]1 ?
Reply | 0

Ask | Here is the next compound: O=C(O)CC(O)C(=O)O (stereo not drawn)
Reply | 0

Ask | # repeat for CNCCC(Oc1ccc(C(F)(F)F)cc1)c1ccccc1 (stereo not drawn)
Reply | 0

Ask | # repeat for CC1=C(/C=C/C(C)=C/C=C/C(C)=C/C(=O)O)C(C)(C)CCC1
Reply | 0

Ask | Same for CCN(CC)CCSC(=O)C(c1ccccc1)c1ccccc1
Reply | 0

Ask | Entry to check: Cc1cc(O)cc2c1O[C@](C)(CCC[C@H](C)CCC[C@H](C)CCCC(C)C)CC2
Reply | 0

Ask | Then CCOc1ccc2ccccc2c1C(=O)N[C@@H]1C(=O)N2[C@@H]1SC(C)(C)[C@@H]2C(=O)O ?
Reply | 0

Ask | And CN1CCN(C2Cc3ccccc3Sc3ccc(Cl)cc32)CC1 (stereo not drawn) ?
Reply | 0

Ask | Also O=C(O)c1ccccn1 ?
Reply | 0

Ask | Try the compound COc1ccc2[nH]c(S(=O)Cc3ncc(C)c(OC)c3C)nc2n1 (stereo not drawn)
Reply | 0

Ask | Another compound to look at: O=C1NS(=O)(=O)c2ccccc21
Reply | 0

Ask | Entry CCC(=O)Nc1ccc(O)cc1 please
Reply | 0

Ask | Request: CCN(CC)CCNC(C(=O)OCCC(C)C)c1ccccc1 (stereo not drawn)
Reply | 0

Ask | Field entry: NCCNCCNCCN
Reply | 0

Ask | Item: Cc1cccc(C)c1NC(=O)CN(CC(=O)O)CC(=O)O
Reply | 0

Ask | Consider next the compound CCOc1nc2cccc(C(=O)O)c2n1Cc1ccc(-c2ccccc2-c2nn[nH]n2)cc1 in the same way.
Reply | 0

Ask | What do we get for CC1(C)[C@@H]2CC[C@@]1(C)C(=O)C2 ?
Reply | 0

Ask | Let us now turn to CC12CCC(CC1)C(C)(C)O2
Reply | 0

Ask | Continue with N[C@@H](CSCCCO)C(=O)O
Reply | 0

Ask | Then this compound: COc1ccc(S(=O)(=O)Nc2nnc(CC(C)C)s2)cc1
Reply | 0

Ask | Param item: CCCCOC(=O)c1ccc(O)cc1
Reply | 0

Ask | Query CN(C)CCCN1c2ccccc2Sc2ccc(Cl)cc21 next
Reply | 0

Ask | Thanks! And O=S(=O)(O)NC1CCCCC1 ?
Reply | 0

Ask | Please answer likewise for CCN(CC)CCNC(=O)c1c(C)[nH]c(/C=C2\C(=O)Nc3ccc(F)cc32)c1C
Reply | 1

Ask | Also check NC(=O)NC(=O)Cc1ccccc1
Reply | 0

Ask | Please answer likewise for CCCCN1CCCC[C@H]1C(=O)Nc1c(C)cccc1C
Reply | 0

Ask | And then O=C1NC(=O)[C@@]2(CCOc3ccc(F)cc32)N1 , what is it?
Reply | 0

Ask | Similarly, CCCCOc1cc(C(=O)OCCN(CC)CC)ccc1N ?
Reply | 0

Ask | Again, but for O=C1O[C@H]([C@@H](O)CO)C(O)=C1O
Reply | 0

Ask | # iterate: O=c1cc[nH]c(=O)[nH]1
Reply | 0

Ask | What do you get for CC1(C)CO[C@@H](CC(=O)O)CN1 ?
Reply | 0

Ask | And for COC(=O)C1=C(C)NC(C)=C(C(=O)OC)C1c1ccccc1[N+](=O)[O-] ?
Reply | 0

Ask | // repeat for Nc1ccc(S(=O)(=O)Nc2ccc(Cl)nn2)cc1 and report
Reply | 0

Ask | Do the same for Nc1nc2c(ncn2CCC(CO)CO)c(=O)[nH]1 please
Reply | 0

Ask | Another compound to check: C[C@]12C[C@H](O)[C@H]3[C@@H](CCC4=CC(=O)CC[C@@]43C)[C@@H]1CC[C@@H]2C(=O)CO
Reply | 0

Ask | Also check CCCOC(=O)c1ccccc1
Reply | 0

Ask | Also check COc1cc2[nH]c(=O)[nH]c(=O)c2cc1OC
Reply | 0

Ask | Similarly, O=C(O)c1ccccc1-c1ccc(C(F)(F)F)cc1 ?
Reply | 0

Ask | Same read-out for [O-][n+]1cccc(CO)c1 ?
Reply | 0

Ask | Now the same for OCc1cc(C(O)CNCCCCCCOCCCCc2ccccc2)ccc1O (stereo not drawn)
Reply | 0

Ask | Likewise for NC(CSCC(=O)O)C(=O)O (stereo not drawn) ?
Reply | 0

###

- SUBJECT_OF_TEST: Mitogen-activated protein kinase 10 (Mus musculus)
- EXPERIMENT_SUMMARY: JNK3 AlphaScreen Assay (AID 530);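 also: kinase came from lysate of stimulated human HepG2 cells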
- TEST_PARAMETERS: JNK3 lysate, c-Jun phosphorylation; series mostly up to 57.1 µM
Inconclusive results are not listed. Active and inactive are the calls of the source. Calls follow the shape of the dose curve; as a rule, active = well fitted curve in either direction with a large enough effect (not every such curve was filed as active); inconclusive = small, poorly fitted or top-dose-only effect, or another doubt; inactive = flat fitted curve, though single readings scatter.
Your answer must be one of the following: true = active, false = inactive

Ask | Give the logged outcome of this assay for the following compound: CCCCOc1cc(C(=O)OCCN(CC)CC)ccc1N
Reply | false

Ask | Cool, now O=C(O)CN1C(=O)c2cccc3cccc(c23)C1=O
Reply | false

Ask | Please do the same for COC(=O)C1=C(C)NC(C)=C(C(=O)OC)C1c1ccccc1[N+](=O)[O-] as well.
Reply | false

Ask | Can you check C=Cc1c(C)c2cc3[nH]c(cc4nc(cc5nc(cc1[nH]2)C(C)=C5CCC(=O)O)C(CCC(=O)O)=C4C)c(C)c3C=C next?
Reply | true

Ask | How about NCCNCCNCCN ?
Reply | false

Ask | Cool, now c1ccc2c(CC3=NCCN3)cccc2c1
Reply | false

Ask | And Cc1c(Cl)cccc1Nc1ccccc1C(=O)O ?
Reply | false

Ask | Try this compound next: NCCNCCNCCNCCN
Reply | false

Ask | Another: CCN(CC)CCOC(=O)C1(C2CCCCC2)CCCCC1
Reply | false

Ask | Another compound to check: N=c1c[n+](N2CCOCC2)[n-]o1
Reply | false
